Assay: yeast display, Sf9 membrane polyspecificity reagent, FACS + sequencing; frameworks hold sequencing errors

>  <biosequence>
QVQLVESAGGLVQAGGSLRLSCAASGITFEVYAMGWYRQAPGKERELVAAITGSGSRTYYADSVKGRFTISRDNAKNTVYLQMNSLKPEDTAVYYCAVKGFSTRSYREFDYWGQGSQVTVSS

>  <polyreactivity (PSR sort gate)>
low polyreactivity

$$$$
>  <biosequence>
QVQLVESGGGLVQAGGSLRLSCAASGFTFPTYAMGWYRQAPGKERELVAALSTSGARTYYADSVKGRFTISRDNAKNTVYLQMNSLKPEDTAVYYCAVGSIYTICFRKGYRFDYWGQGTQVTVSS

>  <polyreactivity (PSR sort gate)>
high polyreactivity

$$$$
>  <biosequence>
KVQLVESGGGLVQAGGSLRFSCAPSGSIFSGNTMGWYRQAPGKEREMVAAITRSGDTTYYADSVKGRFTISRDYAKNTVYLQMNSLKPEDTAFYYCAAALPRYRSRAIRVEFWGQGSQVTVSS

>  <polyreactivity (PSR sort gate)>
high polyreactivity

$$$$
>  <biosequence>
QVQLVESGGGLVQAGGSLRLSCAASGSIFWYNAMGWYRQAPGKERELVASISYSGAITYYADSVKGRFTISRDNAKNTVYLQMNSLKPEDTAVYYCNAEHYLPGYDWSEYDSWGQGTQVTVSS

>  <polyreactivity (PSR sort gate)>
low polyreactivity

$$$$
>  <biosequence>
QVQLVESGGGLVQAGGSLRLSWAASGSIFRYNAMGWYRQAPGKERELVAAISSGGGTTYYADSVKGRFTISRDNAKNSVYLQMNSLKPEVTAVYYCNARSYYQRTTYPFRVDYWGQGTQVTVSS

>  <polyreactivity (PSR sort gate)>
high polyreactivity

$$$$
>  <biosequence>
QVQLVESGGGLVQAGGSLRLSCAASGSTFDYNTMGWYRQAPGKERELVAAISESGGSTYYADSVKGRFTISRDNAKNTVYLQMNSLKPEDTAVYYCATDDFGGYFGEYDYWGQGTQVTVSS

>  <polyreactivity (PSR sort gate)>
low polyreactivity

$$$$

* * *

Experiment: yeast display, Sf9 membrane polyspecificity reagent, FACS + sequencing; frameworks hold sequencing errors

>  <biosequence>
QVQLVESGGGLVQAGGSLRLSCAASGSTFSVYAMGWYRQAPGTERELVAAITWSGGSTYYADSVKGRFTISRDNAKNTDYLQMNSLKPEDTAVYDCNAEGYYVWGITTYWLHQYGYWGQGTQVTVSS

>  <polyreactivity (PSR sort gate)>
low polyreactivity

$$$$
>  <biosequence>
QVQLVESGGGLVQAGGSLRLSCAATGFTFHHYVMGWYRHAHGKEREFVASIRWRGGSTYYADSVKGRFTISRDNAKNTVYLQMNSLKPEDTAVYYCAADSFTYWSWLHGYWGQGTQVTVSS

>  <polyreactivity (PSR sort gate)>
high polyreactivity

$$$$
>  <biosequence>
QVQLVESGGGLVQAGGSLRLICAASGSTFPRNAMGWYRQAPGKERELVATITSSGGGTYYADSVKGRFTISRDNAMNTVYLQMNSLKPEDTAVYYCNADGPAGDAFDYWGQGTQVTVSS

>  <polyreactivity (PSR sort gate)>
low polyreactivity

$$$$
>  <biosequence>
QVQLVESGGGLVQAGGSLRLSCAASGRTFGVNMGWYRQAPGKERELVAGITSGGSTYYADSVKGRFTISRDNAKNTVYLQMNSLKPEDTAVFYCAKSYRGKWSPYYYWGQGTQVTVSS

>  <polyreactivity (PSR sort gate)>
high polyreactivity

$$$$
>  <biosequence>
QVQLVESGGGLVQAGGSLRLSCAASGSILADYAMGWYRQGPGKERELVAGISSGGSTNYADSVKGRFTITGDNAKNTVSLQMNSLKPEDTAVYYCNADQDFLFIGYLFDYWGQGTQVTVSS

>  <polyreactivity (PSR sort gate)>
low polyreactivity

$$$$
>  <biosequence>
QVQLVESGGGLVQAGGSLRLSCAASRSTFVRNAMGWYREAPGKESELVAASSNVGSTYYADSVKGRFTISRDTAKNTVYFQMNILKPEDTAVYYCTKQLWYHKFNYWGQGTQVTVSA

>  <polyreactivity (PSR sort gate)>
low polyreactivity

$$$$
>  <biosequence>
QVQLVESGGGLVQAGGSLRLSCAASGRIFAYYAMGWYRQAPGKERELVAAISGGGGSTYYADSVKGRFTISRDNAKNTVYLQMNSLKPEDTAVYYCAARYTVYSATGRYYYWGQGTQVTVSS

>  <polyreactivity (PSR sort gate)>
high polyreactivity

$$$$
>  <biosequence>
QVQLEESGGGLVQAGGSLRLSCAASGRTFVPYVMGWYRQAPGKEMELVATINWSGGSTYYADSVKGRFTISRDNAKNTVYLQMNSLKPEDTADYYCAARYYSDWFYYLFRYDYWGQGTQVTVSS

>  <polyreactivity (PSR sort gate)>
low polyreactivity

$$$$
>  <biosequence>
QVQLVESGGGLVQAGGSLRLSCAASGSTFGKYTMGWYRQAPGKERELVAAISWSGGNTYYADSVKGRFTISRDNAKNTVYLQMNSLKPEDTAVYYCAAEREAYNTWFDYWGQGTQVTVSS

>  <polyreactivity (PSR sort gate)>
high polyreactivity

$$$$
>  <biosequence>
QVQLVESGGGLDQAGGSLRLICAASGRTYDTNAMGWYRQAPGKEREFVAAINTGGNTYYADSVKGRFTISRDNAKNTVYLQMNSLIPEDTAVYYSAAYYYYFYHKVIWYELDYWGQGTQVTLSS

>  <polyreactivity (PSR sort gate)>
low polyreactivity

$$$$
>  <biosequence>
QVQLVESGGGLVQAGGSLRLSCAASGFTIWYTMGSYRQAPGKEREFLAAITSGGGSTYYAESVKGRFTISRDNAKNTVYFQMNSLKPEDTAVYYCAARERSYRAYGYWRQGTQVTVSS

>  <polyreactivity (PSR sort gate)>
high polyreactivity

$$$$
>  <biosequence>
QVQLVESGGGLVQAGGSLRLSCAASGSIFGINAMGWYRQAPGKERELVAAISGSTSRTYYADSVKGRFTISRDNAKNTVYLQMNSLKPEDTAVYYCAVVGLRSVTRRSYYWGQGTQVTVSS

>  <polyreactivity (PSR sort gate)>
high polyreactivity

$$$$
>  <biosequence>
QVQLVESGGGLVQAGGSLRLSCAASGSILYVYAMGWYRQAPGKERELVAVITSGGSTNYADSVKGRFTISRDNAKNTVYLQMNSLKPEDTAVYYCRFKYAVAHHFWVYRYDYWGQGTQVTVSS

>  <polyreactivity (PSR sort gate)>
low polyreactivity

$$$$
>  <biosequence>
QVQLVESGGGLDQAGGSLRLSCAASGSIFWSYDRGWYRQAPGKETELVATITSGDSTYYADSVKGRFTISRDNEKNTVYLPMKSLKPEDTAVYYCAAGTFYRPTYCHREYDYWGQGTQVTVSS

>  <polyreactivity (PSR sort gate)>
low polyreactivity

$$$$

* * *

Test: yeast display, Sf9 membrane polyspecificity reagent, FACS + sequencing; frameworks hold sequencing errors

>  <biosequence>
QVQLVESGGGLVQAGCSLRLSCAASGFTFLNNAMGWSRQAPGKEREMVAAISQSGTSTYYADSVKGRFTISRDNAKNTVYLQMNSLKPEDTAVYYCAAEDTYPHDYSGGLEYDYWGQGTQVTVSS

>  <polyreactivity (PSR sort gate)>
low polyreactivity

$$$$
>  <biosequence>
QVQLVESGGGLVQAGGSLRLSCAASGRIYWYYAMGWYRQAPGKERELVATISYGGGNTYYADTVKVRFTISRDNAKNTVYLQMNSLNPEDTAVYYCARVPYAYLPYKPFQQYSYDYWGQGTQVTVSS

>  <polyreactivity (PSR sort gate)>
high polyreactivity

$$$$
>  <biosequence>
QVQLVESGGGLVQAGRSLRLSCAASGYTIRYYAMGWYRQAPGKERELVAAITNRGGTYYADSVKGRFTISRDNAKNTVYLQLNSLKPEDNAVYYCAARYYWIDFKFGGPRDYWGQGTQVTVSS

>  <polyreactivity (PSR sort gate)>
high polyreactivity

$$$$
>  <biosequence>
QVQHVESGGALVQAGGSLRLSCAASGSIFGDYAMGWYRQAPGKERELVAAITSDRDTYYADSVKGRFTISRDNAKNTVYLQMNSLKPEDTAVYYCNATYGGPYFIQYDYWGQGTQVTVSS

>  <polyreactivity (PSR sort gate)>
low polyreactivity

$$$$
>  <biosequence>
QVQLVESGGGLVQAGGSLRLSCAASGRTFKTYAMGWYRQAPGKERELVAAITRRGGSTYYADSVKGRFTISSDNAKNTVYLQMNRLKPEDTAVYYCAAGFYFLSLFSGRMDYWGQGTQVTVSS

>  <polyreactivity (PSR sort gate)>
high polyreactivity

$$$$
>  <biosequence>
QVQLVESGGGLDQAGGSLRLSCAASGRTFSWYAMGWYRQAPGKERELVAAITYSGGNTYYAHSVKGRFTISRDNAKITVYLLRNSLKPDDNAVYYCAAPSLIAKYEYWGQGTQVTVSS

>  <polyreactivity (PSR sort gate)>
high polyreactivity

$$$$
>  <biosequence>
QVQLVESGGGLDQAGGSLRLSCAASGRTFGWYAMGWYRQAPGTERELVAVISSSGGRTYYADSVKGRFTISRDNAKNTVYLQLNSLKPEDTAVYYCATPNGSKRYSYYYWGQGTQVTVSS

>  <polyreactivity (PSR sort gate)>
high polyreactivity

$$$$
>  <biosequence>
QVQLVESGGGLVQAGGSLRLSCAASGRTFVFNAMGWYRQAPGKERELVAGISGSGGSTYYADSVKGRFTISRDNAKNTVYLQMNSLKPEDTAVYYCATKFPRKELDQDSVSGLGYWGQGTQVTVSS

>  <polyreactivity (PSR sort gate)>
low polyreactivity

$$$$
>  <biosequence>
QDQLEESGGGLVQAGGSLRLSCAASGRNFYGYVMGWYRQAPGKERELVAAISSGGSTYYADSVKGRFTISRDNAKNTVYLQMNSLKPEDTAVYYCNADWKSYRGPKFDYWGQGTQVTVSS

>  <polyreactivity (PSR sort gate)>
low polyreactivity

$$$$
